- System: Fusarium oxysporum
- method_notes: Antifungal activity against Fusarium oxysporum was measured as mycelial growth at 0.5 mg/mL concentration
- Format: functional
Provide the recorded Mycelial growth for the entries that follow.

Sample records with Mycelial growth:
smiles_repr: CCOC(=O)c1cn(-c2ccc([N+](=O)[O-])cc2[N+](=O)[O-])nc1-c1ccc(Cl)cc1
measured_target: Fusarium oxysporum
Mycelial growth: 4 cm
//
smiles_repr: Cc1nn(-c2ccc([N+](=O)[O-])cc2[N+](=O)[O-])cc1C(=O)OC(C)(C)C
measured_target: Fusarium oxysporum
Mycelial growth: 5.7 cm
//
smiles_repr: Cc1nn(-c2ccc([N+](=O)[O-])cc2[N+](=O)[O-])cc1C(=O)OCc1ccccc1
measured_target: Fusarium oxysporum
Mycelial growth: 4.3 cm

State the recorded Mycelial growth for every item in the following list.
1. CCOC(=O)c1cn(-c2ccc([N+](=O)[O-])cc2[N+](=O)[O-])nc1-c1ccccc1F
2. CCOC(=O)c1nn(-c2ccc([N+](=O)[O-])cc2[N+](=O)[O-])cc1C=O
3. CCOC(=O)c1cn(-c2ccc([N+](=O)[O-])cc2[N+](=O)[O-])nc1-c1ccccc1
4. CCOC(=O)c1cn(-c2ccc([N+](=O)[O-])cc2[N+](=O)[O-])nc1C
5. CCOC(=O)c1cn(-c2ccc([N+](=O)[O-])cc2[N+](=O)[O-])nc1CCl

A)
["5.3 cm", "2.6 cm", "3 cm", "5.4 cm", "4.6 cm"]
